assay: in vitro; conditions: human, neutrophils
property: cytotoxicity at 1 h, 46 µM

Query: Name the reported cytotoxicity at 1 h, 46 µM value associated with the compound CC(=O)O[C@H]1C(=O)[C@@]2(C)[C@H]([C@H](OC(=O)c3ccccc3)[C@]3(O)C[C@H](OC(=O)[C@H](O)[C@@H](NC(=O)c4ccccc4)c4ccccc4)C(C)=C1C3(C)C)[C@]1(OC(C)=O)CO[C@@H]1C[C@@H]2O [paclitaxel]
Response: < 5%

All figures here come from patent US5886026A.
